Each recorded value in this set is attributed to PubChem BioAssay (NCI).

Tested on: M19-MEL melanoma
Assay text: NCI tumour cell line growth inhibition, 48 h
Quantity name: TGI

Short answer for COc1cccc(N2C(=O)[C@H]3CC(C)c4c([nH]c5ccccc45)[C@H]3C2=O)c1 (stereo partly drawn) : TGI was > 100 µM

For record COC(=O)C(=O)C(C(=O)C=C(C)C)C(=O)C(=O)Nc1ccc(C)cc1C (stereo not drawn) the listed TGI is > 100 µM

Consider `CCCCOC(=O)NC(=O)c1cn(C2CCCCC2)c(=O)[nH]c1=O` . Its measured TGI is > 100 µM

Please fill in: TGI reported for O=C1CCCCC2N(C(c3ccccc3)c3ccccc3)CC[C@@]12c1ccccc1 (mixture of isomers) = > 10 µM

Briefly, TGI measured for CC(C)N1CN(C(C(=O)N[C@@H]2C(=O)N3C2SC(C)(C)C3C(=O)O)c2ccccc2)CSC1=S (stereo partly drawn) : > 100 µM

Record summary for C/C=C1/C(=C/c2[nH]c(/C=c3\[nH]/c(=C/C4=NC(=O)C(CC)=C4C)c(C)c3CCC(=O)O)c(CCC(=O)O)c2C)NC(=O)C1C (stereo not drawn) : reported TGI = > 150 µg/mL

TGI reported for this compound `N#C/C(=C\c1cc2ccccc2c2ccccc12)c1ccccc1` : > 100 µM

Query `COc1cccc(/C=C2\C(=O)N(C(=O)c3ccc(NC(C)=O)cc3)N=C2C)c1` yields TGI of > 100 µM

* * *

Give measured TGI for each item. Keep answers brief.
Test system: HCC-2998 colon
Assay text: NCI tumour cell line growth inhibition, 48 h

molecule Cc1ccc(-c2c3nc(c(-c4ccc(C)cc4)c4ccc([nH]4)c(-c4ccc(OCC5COC(C)(C)O5)cc4)c4nc(c(-c5ccc(C)cc5)c5ccc2[nH]5)C=C4)C=C3)cc1 (stereo unspecified) , TGI observed: > 31.6 µM

Looking up `CCC(=O)c1c(C(F)(F)F)n([O-])c2ccc(C)cc2[n+]1=O` , I see its TGI listed as 21.9 µM

Note to self: TGI recorded for `COc1cc(OC)c2c(=O)c(OC)c(-c3ccc4c(c3)OCO4)oc2c1` was > 100 µM

The molecule listed as COc1cc2c(c(OC)c1)C1(CC(CC#N)C2)SCCS1 (stereo unspecified) has a reported TGI of > 100 µM

Recorded result, `CCOP(=O)(CN1CCNCCNCC1)OCC` , TGI: > 100 µM

Recorded result, `COc1ccc(N2C(=O)c3cc(C)cnc3S2(=O)=O)cc1` , TGI: > 100 µM

Note to self: TGI recorded for `Cc1ccccc1N=Nc1ccc(N/N=C2/CCCNC2=O)c(C)c1` was > 100 µM

Item: `O=[N+]([O-])c1cccc2nc3ccccc3c(NCCC[N+]3([O-])CCOCC3)c12` | TGI: 0.0393 µM

The measured TGI associated with `N#Cc1c(Cl)c2cc([N+](=O)[O-])ccc2n2c1nc1ccccc12` reads 19.4 µM

The value of TGI measured for the molecule COc1ccc(C2SCC(=O)N2NC(=O)Nc2c(C)nc3ccccn23)cc1 (stereo unspecified) turned out to be > 100 µM

molecule `CN(/N=C/c1ccc(OCc2cccc(COc3ccc(C=O)cc3)n2)cc1)c1cnn(-c2ccc(Cl)cc2Cl)c(=O)c1Cl` , TGI observed: > 100 µM

Short answer for `O=C1NCCCNCCCNCCCNC(=O)c2cccc1n2` : TGI was > 100 µM

response.value for O=C1NC2OCC(O)C(O)C2O1 (stereo unspecified) (field: TGI) = > 100 µM

Notebook: `COc1cc(/C=C2\N=C(c3ccccc3)N(c3nc4c(OC)ccc(OC)c4s3)C2=O)ccc1O` , TGI read as > 100 µM

The value of TGI measured for the molecule `Cc1ccc2c(c1)CN(C(=O)CCC(=O)OCc1ccccc1)c1ccc(C)cc1CN2C(=O)CCC(=O)OCc1ccccc1` turned out to be > 100 µM

For record `C=C1CC[C@H](O)C(C)(C)[C@@H]1CC/C(C)=C/CC/C=C(\C)CC/C=C(\C)CCC=C(C)C` the listed TGI is > 100 µM
